B1: library; numbered along this chain (parent)
chain: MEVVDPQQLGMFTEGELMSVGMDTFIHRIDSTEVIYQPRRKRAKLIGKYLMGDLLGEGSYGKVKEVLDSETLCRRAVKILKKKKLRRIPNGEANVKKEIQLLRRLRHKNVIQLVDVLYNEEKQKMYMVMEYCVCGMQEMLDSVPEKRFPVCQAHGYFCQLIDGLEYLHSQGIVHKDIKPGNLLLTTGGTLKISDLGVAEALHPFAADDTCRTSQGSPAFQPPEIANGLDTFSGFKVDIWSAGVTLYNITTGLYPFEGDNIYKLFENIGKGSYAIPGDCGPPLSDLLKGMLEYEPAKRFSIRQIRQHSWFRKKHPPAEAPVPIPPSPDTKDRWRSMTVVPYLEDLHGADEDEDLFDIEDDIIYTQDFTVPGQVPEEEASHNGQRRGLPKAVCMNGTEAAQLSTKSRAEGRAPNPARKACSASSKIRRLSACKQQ

# Variants of: B1
# ASSAY EXPLANATION: STK11 functional score (HeLa growth suppression), rescaled enrichment; synonymous median = 1, nonsense median = 0 (normalised score)
# CONDITIONS USED: with HeLa; variant type: missense
STK11 functional score of 1 or higher: satisfied. Under 1: not satisfied.

N94M :: not satisfied
L113E :: satisfied
R383M :: satisfied
Q302S :: satisfied
P315C :: satisfied

Enquiry: hey, is STK11 functional score for this one >= 1? `P326H`
Return: not satisfied

Enquiry: Is STK11 functional score for `E342N` at or above 1?
Return: satisfied

Enquiry: In plain terms: is recorded STK11 functional score at least 1 for `A417V` ?
Return: not satisfied

Enquiry: Please tell me: is the variant `L344I` at or over 1 in terms of STK11 functional score?
Return: satisfied

Enquiry: Quick check, STK11 functional score >= 1? `S378N`
Return: satisfied

Enquiry: Does the variant `D359T` have recorded STK11 functional score that is 1 or more?
Return: satisfied

Enquiry: API: above_or_equal(metric=STK11 functional score, cutoff=1) for item `N266E`
Return: not satisfied

Enquiry: Decide: is the reported value of STK11 functional score for `P281R` equal to or greater than 1?
Return: not satisfied
